B1: HDV Ribozyme (parent)
chain: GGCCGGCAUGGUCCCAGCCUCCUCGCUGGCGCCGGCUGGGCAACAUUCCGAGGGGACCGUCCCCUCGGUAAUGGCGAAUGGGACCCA

Variants of: B1
Assay: self-cleavage, relative activity (ratio to wild type); higher = more cleavage; co-transcriptional
self-cleavage listing for selected variants.

change	self-cleavage
C7A G52A	0.629
G29C U46G	0.0723
C3A C75A	0.0784
G29C G35C	0.0405
G10A U47G	0.853
G39C C49A	0.237
G35A U79C	0.282
G17C A70C	0.0536
C7G A71C	0.222
C22U G73A	0.192
C4A A70U	0.252
G35C C58U	0.231
C24A C62U	0.89
G10U A45G	1.07
C41A G54C	1.08
C22A U23G	0
C18G G54U	0.0563
A70C A71G	0.831
C49A C62A	0.81
A8G G80A	0.148
C61U G67C	0.78
C15G A83U	0.0791
U9A G81A	0.396
G68U G80C	0.253
C19G U37A	0.0627
C36G U69A	0.229
G17U A87U	0.548
G1C G35C	0
C48G A70G	0.772
U20A C21G	0.256
C14G A56G	0.646
C49U U65C	0.902
G10U G74U	0.0594
C14G A43G	0.0978
C19U C30U	0.0608
U23G G28U	0.0326
G35C C44G	0.145
G2U U46G	0.0231
C33A C86U	0.244
U12A G25A	0.108
G59C A78U	0.155
G1A U9A	0.138
C13U G29A	0.104
C57A C66G	0.985
A16C A51U	0.935
C64G C66U	0.955
C3A C61G	0.512
C15A C30U	0.104
C18G G52U	0.203
G54A A70U	0.843
G38A G55C	0.218
U9A A56G	0.95
C4G U72C	0.0426
C14A A87C	0.643
C26G C85A	1.06
C4U U46A	0.485
G68A G76U	1.14
A16U G50A	0.933
C32A U79G	0.133
U20C G74C	0.107
A8U C85A	0.959
C4U U69C	0.755
G10A A43U	0.355
C15A G31A	0.16
A45U C66A	0.812
A16G A77G	0.831
A8C G11U	0.17
C3U G39A	0.21
C32G G39U	0.0563
U20A C24U	0.162
G6A G82C	0
G25A C33G	0.0228
G52U C75G	0.297
C13U C84U	0.361
G50A U72A	0.677
C3A C32G	0.0266
U46A C85U	0.675
G40C C61G	0.241
G1A U27G	0
G31U A70G	0.48
U20G U60G	0.0831
G6U A45U	0.475
C24U C26G	0.615
U23G A42C	0
C19G A83G	0.0678
G17C C32G	0
A42G G81U	0.0346
G17U G50C	0.496
C19U A51U	0.0923
C13A U27G	0.594
A43G C75G	0.161
